Assay: Aqueous solubility of the compound at pH 4.5 incubated for 24 hrs under shaking condition by LC-UV analysis
Format: physicochemical
Settings: aqueous medium
Readout Label: solubility thermodynamic at 24 h

                   smiles_str                     readout_label  measurement
0  CN(C)C(=O)c1c[nH]c2ccccc12  solubility thermodynamic at 24 h   > 47 µg/mL

-- ask What does the data say about its solubility thermodynamic at 24 h? Entry: COC(=O)c1ccc2c(ccn2C(=O)c2ccccc2)c1
-- reply < 1 µg/mL

-- ask What does the data say about its solubility thermodynamic at 24 h? Entry: Cn1cc(C(=O)c2ccccc2)c2cc(C(=O)NCc3cccnc3)ccc21
-- reply 3 µg/mL

-- ask What does the data say about its solubility thermodynamic at 24 h? Entry: COC(=O)c1ccc2ccc(C(=O)Nc3ccccc3)c-2cc1
-- reply < 1 µg/mL

###

Measured degraded at 168 h of individual entries
Assay: Photostability of the compound assessed as compound degradation administered as solid irradiated with sun light and measured after 7 days by HPLC analysis

Known degraded at 168 h results, listed for orientation:
In [3]: df
Out[3]:
                             smiles_str      readout_label  measurement
0            CN(C)C(=O)Cc1ccc2cccc-2cc1  degraded at 168 h       < 0.5%
1  O=C(O)c1ccc2ccc(C(=O)c3ccccc3)c-2cc1  degraded at 168 h       < 0.5%

-- ask What does the data say about its degraded at 168 h? Entry: O=C(NCCO)c1ccc2ccc(C(=O)c3ccccc3)c-2cc1
-- reply < 0.5%

-- ask What does the data say about its degraded at 168 h? Entry: O=C(Cn1ccccc1=O)Nc1cc2cccccc-2c1
-- reply < 0.5%

-- ask What does the data say about its degraded at 168 h? Entry: c1cc2ccc(CN3CCCCC3)ccc-2c1
-- reply < 0.5%

-- ask What does the data say about its degraded at 168 h? Entry: O=C(O)c1ccc2cccc-2cc1
-- reply < 0.5%

-- ask What does the data say about its degraded at 168 h? Entry: CN(C)C(=O)c1ccc2cccccc1-2
-- reply < 0.5%

-- ask What does the data say about its degraded at 168 h? Entry: CN1CCN(C(=O)c2ccc3ccc(C(=O)c4ccccc4)c-3cc2)CC1
-- reply < 0.5%

###

Experiment: Photostability of the compound at pH 5.3 assessed as compound degradation administered as solution irradiated with sun light and measured after 7 days by HPLC analysis
Format: physicochemical
Conditions: time 7 day, read-out: Drug degradation
Readout Label: degraded at 168 h (%)
Your answer should be a plain number; it is taken to be in %.

-- ask What does the data say about its degraded at 168 h? Entry: CN(C)C(=O)Cc1ccc2cccc-2cc1
-- reply 12

###

Test: Photostability of the compound at pH 7.1 assessed as compound degradation administered as solution irradiated with sun light and measured after 7 days by HPLC analysis
Assay type: physicochemical
Conditions: time 7 day, read-out: Drug degradation
Readout Label: degraded at 168 h (%)
Your answer should be a plain number; it is taken to be in %.

-- ask What does the data say about its degraded at 168 h? Entry: O=C(Cn1ccccc1=O)Nc1cc2cccccc-2c1
-- reply 85

###

System: Cytochrome P450 2C9 (Homo sapiens, UniProt P11712) | Read-out: IC50
Sequence (P11712 whole entry): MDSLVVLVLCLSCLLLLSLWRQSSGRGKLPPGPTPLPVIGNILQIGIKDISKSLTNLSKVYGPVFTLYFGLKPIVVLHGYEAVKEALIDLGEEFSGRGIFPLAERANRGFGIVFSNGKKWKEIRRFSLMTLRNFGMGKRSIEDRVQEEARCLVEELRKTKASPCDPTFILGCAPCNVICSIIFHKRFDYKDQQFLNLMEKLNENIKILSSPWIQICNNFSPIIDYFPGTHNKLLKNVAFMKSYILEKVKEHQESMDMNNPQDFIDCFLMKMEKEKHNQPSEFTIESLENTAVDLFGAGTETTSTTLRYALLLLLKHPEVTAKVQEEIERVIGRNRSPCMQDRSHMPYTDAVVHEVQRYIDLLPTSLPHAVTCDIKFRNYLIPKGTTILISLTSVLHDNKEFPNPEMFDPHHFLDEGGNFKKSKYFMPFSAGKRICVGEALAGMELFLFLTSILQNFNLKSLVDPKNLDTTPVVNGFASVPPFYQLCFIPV

Known IC50 results, listed for orientation:
                                 smiles_str  readout_label  measurement
0                  COCC(=O)Nc1cc2cccccc-2c1           IC50      > 50 µM
1  O=C(O)c1ccc2c(C(=O)c3ccccc3)cc(C(=O)c3ccccc3)c-2cc1           IC50        12 µM
2                 CN(C)C(=O)c1ccc2cccccc1-2           IC50      > 50 µM

Now for another entry.
-- ask Item c1cc2ccc(CN3CCCCC3)ccc-2c1 with Cytochrome P450 2C9 (Homo sapiens, UniProt P11712) - IC50?
-- reply > 50 µM

The measurements presented in this section are drawn from ChEMBL document CHEMBL5120825.
